// provenance: patent US20200339690A1

- Experimental target: human LILRB2 expressed on cells (human, UniProt Q8N423 22-597)
- Sequence (Q8N423 other isoform, or with tags, fused parts or gaps limits assumed): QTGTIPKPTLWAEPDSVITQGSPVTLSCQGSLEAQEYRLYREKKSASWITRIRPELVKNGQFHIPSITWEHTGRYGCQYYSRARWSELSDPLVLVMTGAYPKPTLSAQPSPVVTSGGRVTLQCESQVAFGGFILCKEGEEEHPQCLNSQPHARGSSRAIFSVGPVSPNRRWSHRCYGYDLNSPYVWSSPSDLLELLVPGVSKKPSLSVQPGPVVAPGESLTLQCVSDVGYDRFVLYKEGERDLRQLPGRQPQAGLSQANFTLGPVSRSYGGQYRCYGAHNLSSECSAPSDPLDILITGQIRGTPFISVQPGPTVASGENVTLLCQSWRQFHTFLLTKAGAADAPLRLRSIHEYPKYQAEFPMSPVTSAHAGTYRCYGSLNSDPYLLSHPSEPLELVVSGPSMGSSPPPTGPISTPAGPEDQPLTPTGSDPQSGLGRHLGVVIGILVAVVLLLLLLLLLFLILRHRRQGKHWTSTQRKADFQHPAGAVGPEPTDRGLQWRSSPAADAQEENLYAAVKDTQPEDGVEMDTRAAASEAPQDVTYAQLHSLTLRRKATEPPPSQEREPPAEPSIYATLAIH
- Measurement notes: cell-based or functional assay
# IC50, IL-10 production by LPS-stimulated HMDMs per record follows
Recorded endpoint: IC50, IL-10 production by LPS-stimulated HMDMs (nM)

Binder	Reported
J-19.h4 (antibody, human IgG4 S228P, kappa, V domains shown, Humanized, human IgG4 backbone) VH: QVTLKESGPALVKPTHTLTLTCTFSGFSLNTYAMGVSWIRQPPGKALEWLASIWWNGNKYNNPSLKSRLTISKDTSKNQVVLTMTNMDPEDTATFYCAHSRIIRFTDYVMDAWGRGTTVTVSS VL: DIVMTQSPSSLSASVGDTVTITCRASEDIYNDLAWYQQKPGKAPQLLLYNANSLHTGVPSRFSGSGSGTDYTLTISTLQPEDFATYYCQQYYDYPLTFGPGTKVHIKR	0.19
J-19.h1 (antibody, human IgG4 S228P, kappa, V domains shown, Humanized, human IgG4 backbone) VH: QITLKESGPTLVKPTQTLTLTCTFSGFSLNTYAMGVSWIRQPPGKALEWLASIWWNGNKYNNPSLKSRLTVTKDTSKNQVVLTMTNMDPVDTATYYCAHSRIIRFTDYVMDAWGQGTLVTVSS VL: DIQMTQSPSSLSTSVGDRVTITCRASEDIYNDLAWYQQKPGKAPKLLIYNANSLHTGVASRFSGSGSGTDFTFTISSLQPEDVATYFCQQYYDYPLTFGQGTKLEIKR	0.45
J-19.h2 (antibody, human IgG4 S228P, kappa, V domains shown, Humanized, human IgG4 backbone) VH: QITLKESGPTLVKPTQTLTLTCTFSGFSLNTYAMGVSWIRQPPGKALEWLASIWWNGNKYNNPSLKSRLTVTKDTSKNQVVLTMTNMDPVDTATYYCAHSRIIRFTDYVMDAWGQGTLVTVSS VL: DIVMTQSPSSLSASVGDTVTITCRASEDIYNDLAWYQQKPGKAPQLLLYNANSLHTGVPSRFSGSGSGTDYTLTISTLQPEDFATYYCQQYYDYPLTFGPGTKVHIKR	0.702
J-19.h3 (antibody, human IgG4 S228P, kappa, V domains shown, Humanized, human IgG4 backbone) VH: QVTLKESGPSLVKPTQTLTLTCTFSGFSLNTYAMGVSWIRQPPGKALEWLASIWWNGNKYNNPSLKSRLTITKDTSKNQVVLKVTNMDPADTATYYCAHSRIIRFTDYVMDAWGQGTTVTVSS VL: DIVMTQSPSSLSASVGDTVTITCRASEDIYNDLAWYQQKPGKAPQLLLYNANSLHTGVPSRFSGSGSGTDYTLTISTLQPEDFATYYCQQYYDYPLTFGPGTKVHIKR	0.27
